target: PAX6 paired domain WT (human, UniProt P26367 4-136)
Sequence (P26367 4-136): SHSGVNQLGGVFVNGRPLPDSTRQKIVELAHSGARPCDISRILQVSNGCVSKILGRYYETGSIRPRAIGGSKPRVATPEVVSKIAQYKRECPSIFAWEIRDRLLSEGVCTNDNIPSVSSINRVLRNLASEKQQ
experiment-description: ITC; ITC (iTC200) at 25 °C in buffer C (composition not given; protein stored in 25 mM Hepes pH 7.5, 150 mM NaCl, 5 mM b-ME); 20 uM protein in cell, 200 uM DNA in syringe, one-site model
test-settings: protein: recombinant; tags: N-terminal His6 removed by TEV; 5' overhang 2 nt on each strand (AA/TT), 24 bp
parameter-measured: pKd
For clarity, pKd is expressed as the negative log10 of concentration in mol/L.

Given the binder P6B (dsDNA) DNA 1: AAGCATTTTCACGCATGAGTGCACAG DNA 2: TTCTGTGCACTCATGCGTGAAAATGC , write its reported pKd. 6.39
